# Tested on: eIF4E phosphorylation at Serine 209 in HEK 293 cells
# test-description: eIF4E phosphorylation in HEK 293 cells (phospho-specific antibody, fluorescent plate reader);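 further: Well-level p-eIF4E immunofluorescence normalized to DAPI signal, expressed as percent eIF4E phosphorylation, with IC50 derived from concentration-response curves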
# Type: cell-based
# condition: Homo sapiens, HEK293; eIF4E phosphorylation at Serine 209, 2 hours exposure; read-out: HEK 293 cell
pIC50: −log10 of the molar value.
Quick rule for you: pIC50 at 8 or higher means Fulfilled, lower means Not fulfilled.

Completed entries (count: 4):
>  <compound>
Cc1cc(Nc2cc(NC(=O)C3CC3)ncn2)c(=O)n2c1C(=O)NC21CCC2(CC1)CNC2 [4ET-03-049]

>  <group>
Not fulfilled

$$$$
>  <compound>
Cc1cc(Nc2cc(N)ncn2)c(=O)n2c1C(=O)NC21CC2(CCCCC2)C1 [4ET-01-020]

>  <group>
Fulfilled

$$$$
>  <compound>
Cc1cc(Nc2cc(NC(=O)C3CC3)ncn2)c(=O)n2c1C(=O)NC21CC2(CCC2)C1 [4ET-03-043]

>  <group>
Fulfilled

$$$$
>  <compound>
Cc1cc(Nc2cc(N)ncn2)c(=O)n2c1C(=O)NC21CC2(CCCC2)C1 [4ET-01-018]

>  <group>
Fulfilled

$$$$

Here is the next item to consider.
Form field: pIC50 at least 8? Entry: Cc1cc(Nc2cc(N)ncn2)c(=O)n2c1C(=O)NC21CC2(CC(F)(F)C2)C1 [4ET-01-017]
Not fulfilled

----------
# test-description: PK study in CD-1 male mice with IV and PO dosing (Example 3)
# Assay type: in vivo
# condition: male, CD-1, mouse, in vivo, po, 10 mg/kg, t1/2
measured-endpoint: half-life (h)
Your answer is read as h, so omit the unit and give the number.

// query half-life value for entry `Cc1cc(Nc2cc(N)ncn2)c(=O)n2c1C(=O)NC21CCC2(CC2)CC1`
5.14

----------
# System: P-gp (human MDR1, ABCB1)
# test-description: MDCK-MDR1 permeability (blood-brain barrier permeability)
# condition: dog
Recorded measurements of efflux ratio at 5 uM, one per entry
Output: the number by itself.

// query efflux ratio at 5 uM value for entry `Cc1cc(Nc2cc(NC(=O)[C@H]3[C@@H]4CNC[C@@H]43)ncn2)c(=O)n2c1C(=O)NC21CCC2(CC2)CC1`
31.8

// query efflux ratio at 5 uM value for entry `Cc1cc(Nc2cc(NC(=O)C3CC3)ncn2)c(=O)n2c1C(=O)NC21CC2(CCC2)C1`
2.1

// query efflux ratio at 5 uM value for entry `Cc1cc(Nc2cc(NC(=O)C3CC3)ncn2)c(=O)n2c1C(=O)NC21CCC2(CC1)CNC2`
2.1

// query efflux ratio at 5 uM value for entry Cc1cc(Nc2cc(N)ncn2)c(=O)n2c1C(=O)NC21CCC2(CC1)CC2(F)F (stereo not shown)
3.8

----------
# test-description: PK study in male Sprague-Dawley rats dosed once per day for five days, PO 25 mg/kg, 0.5% HPMC (Example 8)
# Type: in vivo
# condition: male, Sprague-Dawley, rat, in vivo, po, 25 mg/kg, day five of daily PO 25 mg/kg, 0.5% HPMC suspension, individual animals, read-out: Clast
measured-endpoint: concentration at 24 h (µg/mL)
Your answer is read as µg/mL, so omit the unit and give the number.

// query concentration at 24 h value for entry `Cc1cc(Nc2cc(N)ncn2)c(=O)n2c1C(=O)NC21CCC2(CC2)CC1`
6.22
